B1: EPB41L3 (parent)
chain: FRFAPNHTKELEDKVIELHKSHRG

Variants of: B1
EXPERIMENT SUMMARY: protein stability index of a GFP-peptide fusion (GPS, HEK-293T) (PSI 1-6); higher = more stable;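 further: lentivirally expressed fusions sorted by FACS into six bins by GFP to DsRed ratio, PSI derived from sequencing read proportions per bin multiplied by bin number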
PARTICULARS: c terminus: a fixed tail appended
PARAMETER MEASURED: protein stability index

- INPUT SEQUENCE: "LRFAPNHTKELEDKVIELHKSHRG [F1L]"
  REPORTED: 3.78
- INPUT SEQUENCE: "FRFAGNHTKELEDKVIELHKSHRG [P5G]"
  REPORTED: 1.98
- INPUT SEQUENCE: "FRFAPNHLKELEDKVIELHKSHRG [T8L]"
  REPORTED: 1.82
- INPUT SEQUENCE: "FRFAPNHTKEWEDKVIELHKSHRG [L11W]"
  REPORTED: 1.99
- INPUT SEQUENCE: "FRFAPRHTKELEDKVIELHKSHRG [N6R]"
  REPORTED: 2.03
- INPUT SEQUENCE: "FRFAPEHTKELEDKVIELHKSHRG [N6E]"
  REPORTED: 3.17
- INPUT SEQUENCE: "FRFAHNHTKELEDKVIELHKSHRG [P5H]"
  REPORTED: 2.31
- INPUT SEQUENCE: "FRFAPNHTVELEDKVIELHKSHRG [K9V]"
  REPORTED: 2.24
- INPUT SEQUENCE: "FRFAPNHTKEAEDKVIELHKSHRG [L11A]"
  REPORTED: 1.54
- INPUT SEQUENCE: "FRFCPNHTKELEDKVIELHKSHRG [A4C]"
  REPORTED: 2.2
- INPUT SEQUENCE: "FRFAPNHTKELEVKVIELHKSHRG [D13V]"
  REPORTED: 1
- INPUT SEQUENCE: "FRFAPNHTHELEDKVIELHKSHRG [K9H]"
  REPORTED: 2.06
- INPUT SEQUENCE: "FRFAPNHTKELEDKVVELHKSHRG [I16V]"
  REPORTED: 2.71
- INPUT SEQUENCE: "FMFAPNHTKELEDKVIELHKSHRG [R2M]"
  REPORTED: 2.89
- INPUT SEQUENCE: "FRFAPNHTKELEDCVIELHKSHRG [K14C]"
  REPORTED: 1.89
- INPUT SEQUENCE: "FRFAPNHTKELEKKVIELHKSHRG [D13K]"
  REPORTED: 1.86
- INPUT SEQUENCE: "FRFAPNHTKELEDKVIELHKSHMG [R23M]"
  REPORTED: 1.73
- INPUT SEQUENCE: "FRFAINHTKELEDKVIELHKSHRG [P5I]"
  REPORTED: 2.63
- INPUT SEQUENCE: "FRFAPNHTKELEDKVIELHKSHRI [G24I]"
  REPORTED: 2.04
- INPUT SEQUENCE: "FRFAPNHTKELEDKVIELHKSHIG [R23I]"
  REPORTED: 1.72
- INPUT SEQUENCE: "FDFAPNHTKELEDKVIELHKSHRG [R2D]"
  REPORTED: 3.5
- INPUT SEQUENCE: "FRFAPNHTKELEDGVIELHKSHRG [K14G]"
  REPORTED: 2.48
